Measured activity at 1 µM, listed per entry for reference.
# System: P. berghei-ANKA-GFP-LucCON liver stage parasites in HepG2-A16-CD81EGFP cells
# procedure.summary: P. berghei liver stage Pb-Luc assay, Method 1 (UCSD, 1536-well)
# Type: cell-based, Plasmodium berghei
# condition: Plasmodium berghei, 48 h, 1 uM (compounds provided at 10 mM); average of 2 wells on a 1536 well plate; column 12; read-out: Pb-Luc (P. berghei liver stage), % of control, lower concentration, second repeat
recorded.endpoint: activity at 1 µM

>>> print(df.to_string())
                                    compound  recorded_endpoint  result
 0  COc1cc(O)c(C(CCN2CCCCC2)c2ccc3c(c2)OCO3)c(OC)c1 (stereo not shown) [MLS000879495-01]   activity at 1 µM    116%
 1  CCOC(=O)c1nnn(-c2nonc2-n2cccc2)c1CN1CCC(C(=O)OCC)CC1 [MLS000538888-01]   activity at 1 µM     96%
 2  O=c1cc(CSc2ccc(Cl)cc2)nc(-c2ccccn2)[nH]1 [MLS001166297-01]   activity at 1 µM     15%
 3  Cc1ccc(C)c(NC(=O)CN(C)C(=O)c2ccc(-c3ccc(Cl)cc3)o2)c1 [MLS001077062-01]   activity at 1 µM    128%
 4  Cc1ccc(/C=N/Nc2cc(C)nc(NCc3ccccc3)n2)cc1 [MLS000769291-01]   activity at 1 µM    106%
 5  CC(C)Nc1ccc(Nc2ccnc3cc4ccccc4cc23)cc1 [MLS000766754-01]   activity at 1 µM     80%
 6  COc1cc2ccccc2cc1C(=O)N1CC(C)CC(C)C1 (stereo not shown) [MLS001129394-01]   activity at 1 µM    114%
 7  Cc1ccc(Cl)cc1NC(=O)c1cc2ccccc2cc1O [MLS000738149-01]   activity at 1 µM     94%
 8  COc1cc2nc(Nc3ccc(C)c(Cl)c3)nc(N)c2cc1OC [MLS001199666-01]   activity at 1 µM    121%
 9  CCCN(CCC)CCCN=C(S)Nc1ccc2nc(N3CCCC3)cc(C)c2c1 [MLS000730709-01]   activity at 1 µM    128%
10  CCO.Nc1nc(N)c2cc(Sc3ccc4ccccc4c3)ccc2n1 [MLS000757047-01]   activity at 1 µM     12%
11  Cc1ccc2c(c1)[nH]c1c(N3CCN(Cc4ccccc4)CC3)ncnc12 [MLS000041320-01]   activity at 1 µM     17%
12  c1cncc(-c2nnc(-c3cccnc3)nn2)c1 [MLS000075752-01]   activity at 1 µM    109%
13  O=C1NC(=S)S/C1=C\C=C\c1ccc([N+](=O)[O-])o1 [MLS000722913-01]   activity at 1 µM     77%
14  CCOc1ccc(NC(=O)CN2C(=O)NC(C)(c3ccc(OC(F)F)cc3)C2=O)cc1 (stereo not shown) [MLS001193353-01]   activity at 1 µM    108%
15  Cc1cccc(NC2=C/C(=N\S(=O)(=O)c3cccs3)c3ccccc3C2=O)c1 [MLS000585840-01]   activity at 1 µM     90%

Values were extracted from paper PMC7822874.
